Biological target: HLA-B*18:01
Test: IEDB peptide-MHC binding, purified MHC/competitive/radioactivity; filed as Kd, often an IC50 or EC50 that approximates it; bounds were set here for any values at or beyond the usual limits of such assays
Settings: source organism: Lymphocytic choriomeningitis virus (strain Armstrong)
pKd: −log10 of the molar value.

# entry_sequence, pKd
records = [
    ("TEAILQLGDL", 4.97),
]

* * *

Target: HLA-B*40:01
Experiment: IEDB peptide-MHC binding, purified MHC/competitive/radioactivity; filed as Kd, often an IC50 or EC50 that approximates it; bounds were set here for any values at or beyond the usual limits of such assays
Conditions: source organism: Mammarenavirus guanaritoense
pKd: −log10 of the molar value.
readout_name: pKd

# entry_sequence, readout_name, endpoint_value
records = [
    ("PECSDSPLVL", "pKd", "≤ 4.48"),
]

* * *

Target: HLA-A*03:01
Test: IEDB peptide-MHC binding, purified MHC/competitive/radioactivity; filed as Kd, often an IC50 or EC50 that approximates it; bounds were set here for any values at or beyond the usual limits of such assays
Conditions: source organism: Dengue virus 4 Philippines/H241/1956
Each entry below lists one item and its recorded Kd value.
readout_name: Kd (nM)

# entry_sequence, readout_name, unit_tag, endpoint_value
rows = [
    ("RTEAKSALK", "Kd", "nM", 87.6),
    ("LMTLMKGASK", "Kd", "nM", 273),
]

* * *

Molecular target: HLA-A*02:01
Test: IEDB peptide-MHC binding, purified MHC/competitive/fluorescence; filed as Kd, often an IC50 or EC50 that approximates it; bounds were set here for any values at or beyond the usual limits of such assays
Conditions: source organism: Vibrio vulnificus YJ016
readout_name: Kd

# entry_sequence, endpoint_value
rows = [
    ("IALPVAWLF", "≥ 20 µM"),
]

* * *

Target: HLA-B*15:17
Assay: IEDB peptide-MHC binding, purified MHC/competitive/fluorescence; filed as Kd, often an IC50 or EC50 that approximates it; bounds were set here for any values at or beyond the usual limits of such assays
Settings: source organism: Influenza A virus (A/Fort Monmouth/1/1947-mouse adapted(H1N1))
pKd: −log10 of the molar value.
readout_name: pKd

# entry_sequence, readout_name, endpoint_value
measured = [
    ("SYLIRALTL", "pKd", 6.71),
]

* * *

Target: HLA-B*27:05
Experiment: IEDB peptide-MHC binding, purified MHC/direct/fluorescence; filed as Kd, often an IC50 or EC50 that approximates it; bounds were set here for any values at or beyond the usual limits of such assays
Settings: source organism: Orthohantavirus andesense
pKd: −log10 of the molar value.
readout_name: pKd

# entry_sequence, readout_name, endpoint_value
data = [
    ("AYDHGNVIL", "pKd", "≤ 4.70"),
]

* * *

Molecular target: HLA-B*18:01
Assay: IEDB peptide-MHC binding, purified MHC/direct/fluorescence; filed as Kd, often an IC50 or EC50 that approximates it; bounds were set here for any values at or beyond the usual limits of such assays
Settings: source organism: Giardia lamblia ATCC 50803

# entry_sequence, tested_system, Kd
measured = [
    ("LTIVFVPEV", "HLA-B*18:01", "≥ 20 µM"),
]

* * *

Molecular target: HLA-A*68:02
Assay: IEDB peptide-MHC binding, purified MHC/competitive/radioactivity; filed as Kd, often an IC50 or EC50 that approximates it; bounds were set here for any values at or beyond the usual limits of such assays
Conditions: source organism: Dengue virus 2 Jamaica/1409/1983
In plain terms, low Kd, meaning strictly below 10 nM, gives Met, and everything else gives Not met.

# entry_sequence, category_label
data = [
    ("YVVIAILTV", "Not met"),
    ("SGIFITDNV", "Not met"),
    ("TSIGKALHQV", "Not met"),
    ("LTIPPTAGI", "Met"),
    ("TMTDDIGMGV", "Not met"),
]

* * *

Target: HLA-B*58:01
Experiment: IEDB peptide-MHC binding, purified MHC/direct/fluorescence; filed as Kd, often an IC50 or EC50 that approximates it; bounds were set here for any values at or beyond the usual limits of such assays
Conditions: source organism: Yersinia pestis
readout_name: Kd

# entry_sequence, endpoint_value
measured = [
    ("MAMPEYWQF", "1.7 nM"),
]

* * *

Target: HLA-B*51:01
Assay: IEDB peptide-MHC binding, purified MHC/competitive/radioactivity; filed as Kd, often an IC50 or EC50 that approximates it; bounds were set here for any values at or beyond the usual limits of such assays
Conditions: source organism: SARS coronavirus Tor2
readout_name: Kd (nM)

# entry_sequence, readout_name, endpoint_value
rows = [
    ("FPCSICLSGL", "Kd", 35),
    ("KPASRELSV", "Kd", 631),
    ("HPNPKGFCDL", "Kd", 923),
    ("CPAEIVDTV", "Kd", 1.88),
]

* * *

Biological target: HLA-A*03:01
Assay: IEDB peptide-MHC binding, purified MHC/direct/fluorescence; filed as Kd, often an IC50 or EC50 that approximates it; bounds were set here for any values at or beyond the usual limits of such assays
Conditions: source organism: Influenza A virus (A/quail/Hong Kong/FY298/00(H9N2))
pKd: −log10 of the molar value.

# entry_sequence, pKd
measured = [
    ("SYLIRALTL", "≤ 4.70"),
]

* * *

Target: HLA-B*39:01
Assay: IEDB peptide-MHC binding, purified MHC/competitive/fluorescence; filed as Kd, often an IC50 or EC50 that approximates it; bounds were set here for any values at or beyond the usual limits of such assays
Settings: source organism: Yersinia enterocolitica

# entry_sequence, Kd
rows = [
    ("RTVSVMFFI", "≥ 20 µM"),
]

* * *

Target: HLA-B*15:17
Experiment: IEDB peptide-MHC binding, purified MHC/direct/fluorescence; filed as Kd, often an IC50 or EC50 that approximates it; bounds were set here for any values at or beyond the usual limits of such assays
Conditions: source organism: Influenza A virus (A/Wisconsin/4755/1994(H1N1))
readout_name: Kd

# entry_sequence, readout_name, endpoint_value
measured = [
    ("DPKKTGGPI", "Kd", "≥ 20 µM"),
]

* * *

Target: HLA-A*31:01
Test: IEDB peptide-MHC binding, purified MHC/direct/fluorescence; filed as Kd, often an IC50 or EC50 that approximates it; bounds were set here for any values at or beyond the usual limits of such assays
Conditions: source organism: Rickettsia bellii
pKd: −log10 of the molar value.

# entry_sequence, tested_system, pKd
data = [
    ("NIDPEHLDY", "HLA-A*31:01", "≤ 4.70"),
]

* * *

Target: HLA-A*24:02
Experiment: IEDB peptide-MHC binding, purified MHC/competitive/radioactivity; filed as Kd, often an IC50 or EC50 that approximates it; bounds were set here for any values at or beyond the usual limits of such assays
Settings: source organism: Lymphocytic choriomeningitis virus (strain Armstrong)
pKd: −log10 of the molar value.
readout_name: pKd

# entry_sequence, readout_name, endpoint_value
rows = [
    ("FQPQNGQFI", "pKd", 5.90),
]

* * *

Molecular target: HLA-A*31:01
Assay: IEDB peptide-MHC binding, purified MHC/direct/fluorescence; filed as Kd, often an IC50 or EC50 that approximates it; bounds were set here for any values at or beyond the usual limits of such assays
Settings: source organism: Marburg virus - Musoke, Kenya, 1980

# entry_sequence, tested_system, Kd
measured = [
    ("NRWKSWFSY", "HLA-A*31:01", "≥ 20 µM"),
]

* * *

Target: HLA-A*03:01
Assay: IEDB peptide-MHC binding, purified MHC/competitive/fluorescence; bounds were set here for any values at or beyond the usual limits of such assays
Details: source organism: Vaccinia virus WR
readout_name: IC50 (µM)

# entry_sequence, tested_system, readout_name, unit_tag, endpoint_value
measured = [
    ("QGYSHGDIK", "HLA-A*03:01", "IC50", "µM", 12.1),
    ("ILNTIQFMH", "HLA-A*03:01", "IC50", "µM", 3.36),
    ("RLPKRSVML", "HLA-A*03:01", "IC50", "µM", 34.1),
]

* * *

Target: HLA-A*69:01
Experiment: IEDB peptide-MHC binding, purified MHC/direct/fluorescence; filed as Kd, often an IC50 or EC50 that approximates it; bounds were set here for any values at or beyond the usual limits of such assays
Conditions: source organism: Rickettsia bellii
pKd: −log10 of the molar value.
readout_name: pKd

# entry_sequence, endpoint_value
records = [
    ("NIDPEHLDY", "≤ 4.70"),
]

* * *

Target: HLA-B*45:06
Assay: IEDB peptide-MHC binding, purified MHC/competitive/fluorescence; filed as Kd, often an IC50 or EC50 that approximates it; bounds were set here for any values at or beyond the usual limits of such assays
Settings: source organism: Yellow fever virus

# entry_sequence, Kd
rows = [
    ("RWFVRNPFF", "≥ 5 µM"),
]
